# test protocol: Metabolite identification in rat plasma, urine, feces and bile
# Format: in vivo, SD rats
# applied conditions: oral 12 mg/kg BPI-460372, average of male and female pooled samples
Mark 1 only for Relative abundance of MS peak areas, Rat Plasma 0-24 h values smaller than 2%; exact matches and larger values are -1.

compound | group
CC(=O)NC(CSCCC(=O)N1CC(n2c(=O)n(-c3ccc(C(F)(F)F)cc3)c3cncnc32)C1)C(=O)O (stereo not drawn) | 1
O=C(C(O)CO)N1CC(n2c(=O)n(-c3ccc(C(F)(F)F)cc3)c3nccnc32)C1 (stereo not drawn) | -1
CSCC(O)C(=O)N1CC(n2c(=O)n(-c3ccc(C(F)(F)F)cc3)c3nccnc32)C1 (stereo not drawn) | 1
CC(O)C(=O)N1CC(n2c(=O)n(-c3ccc(C(F)(F)F)cc3)c3nccnc32)C1 (stereo not drawn) | -1
CC(=O)NC(CSCC(F)C(=O)N1CC(n2c(=O)n(-c3ccc(C(F)(F)F)cc3)c3nccnc32)C1)C(=O)O (stereo not drawn) | 1
O=c1n(-c2ccc(C(F)(F)F)cc2)c2nccnc2n1C1CNC1 | -1

### Prompt Problem: For the compound C=CC(=O)N1CC(n2c(=O)n(-c3ccc(C(F)(F)F)cc3)c3nccnc32)C1 , is Relative abundance of MS peak areas, Rat Plasma 0-24 h under 2%?
### Response 1

### Prompt Problem: For the compound CCC(=O)N1CC(n2c(=O)n(-c3ccc(C(F)(F)F)cc3)c3nccnc32)C1 , is Relative abundance of MS peak areas, Rat Plasma 0-24 h under 2%?
### Response 1

### Prompt Problem: For the compound NC(CSCC(F)C(=O)N1CC(n2c(=O)n(-c3ccc(C(F)(F)F)cc3)c3nccnc32)C1)C(=O)O (stereo not drawn) , is Relative abundance of MS peak areas, Rat Plasma 0-24 h under 2%?
### Response 1

* * *

The entries below are paired with their reported UV (314 nm) Peak Areas Relative Abundance.
# System: dog hepatocytes
# test protocol: Metabolism and metabolite formation in hepatocytes
# Assay type: in vitro ADME, beagle dog
# applied conditions: beagle dog hepatocytes, 10 µM BPI-460372, 4 h incubation
# unit: % | format: bare number

Consider the following illustrative entries.
chem smiles | unit name | measured value
O=c1n(-c2ccc(C(F)(F)F)cc2)c2nccnc2n1C1CNC1 | % | 18.82
C=C(F)C(=O)N1CC(n2c(=O)n(-c3ccc(C(F)(F)F)cc3)c3nccnc32)C1 | % | 48.28

### Prompt Query for dog hepatocytes: what UV (314 nm) Peak Areas Relative Abundance does the record show for CC(=O)N1CC(n2c(=O)n(-c3ccc(C(F)(F)F)cc3)c3nccnc32)C1 ?
### Response 2.44

* * *

The entries below are paired with their reported Relative abundance of MS peak areas, Rat Urine 0-48 h.
# test protocol: Metabolite identification in rat plasma, urine, feces and bile
# Assay type: in vivo, SD rats
# applied conditions: oral 6 mg/kg BPI-460372, average of male and female pooled samples
Numeric answer plus unit only.

compound | measured value
CC(O)C(=O)N1CC(n2c(=O)n(-c3ccc(C(F)(F)F)cc3)c3nccnc32)C1 (stereo not shown) [M407 (BPI-460430)] | 1.02%
O=c1n(-c2ccc(C(F)(F)F)cc2)c2nccnc2n1C1CNC1 [M335 (BPI-460608)] | 13.23%
NCC(C(=O)O)n1c(=O)n(-c2ccc(C(F)(F)F)cc2)c2nccnc21 (stereo not shown) [M367] | 2.55%

### Prompt // lookup Relative abundance of MS peak areas, Rat Urine 0-48 h for C=C(F)C(=O)N1CC(n2c(=O)n(-c3ccc(C(F)(F)F)cc3)c3nccnc32)C1 [BPI-460372]
### Response 0.12%

* * *

# test protocol: Metabolite identification in rat plasma, urine, feces and bile
# Assay type: in vivo, SD rats
# applied conditions: oral 6 mg/kg BPI-460372, average of male and female pooled samples
The entries below are paired with their reported Relative abundance of MS peak areas, Rat Bile 0-48 h.
# unit: % | format: bare number

Consider the following illustrative entries.
compound | measured value
O=c1n(-c2ccc(C(F)(F)F)cc2)c2nccnc2n1C1CNC1 | 0.070
NC(CCC(=O)NC(CSCC(F)C(=O)N1CC(n2c(=O)n(-c3ccc(C(F)(F)F)cc3)c3nccnc32)C1)C(=O)NCC(=O)O)C(=O)O (stereo not shown) | 3.27
O=C(C(O)CO)N1CC(n2c(=O)n(-c3ccc(C(F)(F)F)cc3)c3nccnc32)C1 (stereo not shown) | 0.58

### Prompt // lookup Relative abundance of MS peak areas, Rat Bile 0-48 h for C=C(F)C(=O)N1CC(n2c(=O)n(-c3ccc(C(F)(F)F)cc3)c3nccnc32)C1
### Response 0.67

* * *

# Tested on: mouse hepatocytes
# test protocol: Metabolism and metabolite formation in hepatocytes
# Format: in vitro ADME, ICR mouse
# applied conditions: ICR mouse hepatocytes, 10 µM BPI-460372, 4 h incubation
# From the text: All the samples were duplicates.
The entries below are paired with their reported UV (314 nm) Peak Areas Relative Abundance.
# unit: % | format: bare number

### Prompt // lookup UV (314 nm) Peak Areas Relative Abundance for CC(O)C(=O)N1CC(n2c(=O)n(-c3ccc(C(F)(F)F)cc3)c3nccnc32)C1 (centres unmarked)
### Response 1.39

### Prompt // lookup UV (314 nm) Peak Areas Relative Abundance for NC(CCC(=O)NC(CSCC(O)C(=O)N1CC(n2c(=O)n(-c3ccc(C(F)(F)F)cc3)c3nccnc32)C1)C(=O)NCC(=O)O)C(=O)O (centres unmarked)
### Response 1.43

### Prompt // lookup UV (314 nm) Peak Areas Relative Abundance for CC(=O)NC(CSCC(F)C(=O)N1CC(n2c(=O)n(-c3ccc(C(F)(F)F)cc3)c3nccnc32)C1)C(=O)O (centres unmarked)
### Response 3.57

### Prompt // lookup UV (314 nm) Peak Areas Relative Abundance for NC(CCC(=O)NC(CSCC(F)C(=O)N1CC(n2c(=O)n(-c3ccc(C(F)(F)F)cc3)c3nccnc32)C1)C(=O)NCC(=O)O)C(=O)O (centres unmarked)
### Response 24.76

* * *

# test protocol: Metabolite identification in rat plasma, urine, feces and bile
# Assay type: in vivo, SD rats
# applied conditions: oral 6 mg/kg BPI-460372, average of male and female pooled samples
Mark Met only for Relative abundance of MS peak areas, Rat Feces 0-48 h values smaller than 5%; exact matches and larger values are Not met.

Example entries and their recorded answers appear below.
compound | group
O=c1n(-c2ccc(C(F)(F)F)cc2)c2nccnc2n1C1CNC1 | Met
CC(O)C(=O)N1CC(n2c(=O)n(-c3ccc(C(F)(F)F)cc3)c3nccnc32)C1 (stereo not drawn) | Not met
CCC(=O)N1CC(n2c(=O)n(-c3ccc(C(F)(F)F)cc3)c3nccnc32)C1 | Not met
NCC(C(=O)O)n1c(=O)n(-c2ccc(C(F)(F)F)cc2)c2nccnc21 (stereo not drawn) | Met
C=C(F)C(=O)N1CC(n2c(=O)n(-c3ccc(C(F)(F)F)cc3)c3nccnc32)C1 | Not met
CC(=O)NC(CSCC(F)C(=O)N1CC(n2c(=O)n(-c3ccc(C(F)(F)F)cc3)c3nccnc32)C1)C(=O)O (stereo not drawn) | Met
O=C(C(O)CO)N1CC(n2c(=O)n(-c3ccc(C(F)(F)F)cc3)c3nccnc32)C1 (stereo not drawn) | Not met
O=c1n(-c2ccc(C(F)(F)F)cc2)c2nccnc2n1C1CN(C(O)C(O)CO)C1 (stereo not drawn) | Met

Please turn your attention to the following entry.
### Prompt Problem: For the compound CSCC(O)C(=O)N1CC(n2c(=O)n(-c3ccc(C(F)(F)F)cc3)c3nccnc32)C1 (stereo not drawn) , is Relative abundance of MS peak areas, Rat Feces 0-48 h under 5%?
### Response Met

* * *

The entries below are paired with their reported Relative abundance of MS peak areas, Rat Plasma 0-24 h.
# test protocol: Metabolite identification in rat plasma, urine, feces and bile
# Type: in vivo, SD rats
# applied conditions: oral 12 mg/kg BPI-460372, average of male and female pooled samples
Numeric answer plus unit only.

Consider the following illustrative entries.
compound | measured value
C=C(F)C(=O)N1CC(n2c(=O)n(-c3ccc(C(F)(F)F)cc3)c3nccnc32)C1 | 75.36%
NCC(C(=O)O)n1c(=O)n(-c2ccc(C(F)(F)F)cc2)c2nccnc21 (stereo not drawn) | 0.065%

### Prompt // lookup Relative abundance of MS peak areas, Rat Plasma 0-24 h for O=c1n(-c2ccc(C(F)(F)F)cc2)c2nccnc2n1C1CN(C(O)C(O)CO)C1 (stereo not drawn)
### Response 0.14%
